Structures can show the parent of a compound that is named as a salt.
assay.readout: melting point (°C)

[
  {
    "compound": "CNC(=O)Cn1nc(Nc2ccc3c(c2)OC(F)(F)O3)nc1-c1ccnc(C)c1 [Compound 200]",
    "melting point [°C]": 227
  },
  {
    "compound": "CCNC(=O)Cn1nc(Nc2ccc(F)c(C(F)(F)F)c2)nc1-c1ccncc1C [Compound 118]",
    "melting point [°C]": 238.6
  },
  {
    "compound": "CCOc1ccc(-c2nc(Nc3ccc(F)c(C(F)(F)F)c3)nn2CCO)cn1 [Compound 91]",
    "melting point [°C]": 157.9
  },
  {
    "compound": "Cc1ccc(-c2nc(Nc3ccc(F)c(C(F)(F)F)c3)nn2CCC(=O)N(C)C)cn1 [Compound 127]",
    "melting point [°C]": 185.4
  },
  {
    "compound": "COc1ncccc1-c1nc(Nc2ccc(F)c(C(F)(F)F)c2)nn1CC(=O)NC1CC1 [Compound 121]",
    "melting point [°C]": 242.4
  },
  {
    "compound": "Cc1cc(-c2nc(Nc3ccc4c(c3)OC(F)(F)O4)nn2CC(=O)NC2CCCC2)ccn1 [Compound 206]",
    "melting point [°C]": 229.1
  },
  {
    "compound": "CC(O)Cn1nc(Nc2cccc(OC(F)(F)F)c2)nc1-c1ccnc(C2CC2)c1 (stereo not shown) (as salt: HCl) [Compound 151]",
    "melting point [°C]": 207.5
  }
]

----------
assay.readout: melting point (°C)

[
  {
    "smiles.entry": "CC(C)(C)OC(=O)CCn1nc(Nc2ccc(F)c(C(F)(F)F)c2)nc1-c1ccnc(CN)c1",
    "assay.readout": "melting point",
    "value.reported": 151.6
  },
  {
    "smiles.entry": "Cc1cc(-c2nc(Nc3ccc(F)c(C#N)c3)nn2CCC(=O)N(C)C)ccn1",
    "assay.readout": "melting point",
    "value.reported": 203.9
  },
  {
    "smiles.entry": "O=C(Cn1nc(Nc2ccc(F)c(C(F)(F)F)c2)nc1-c1ccnc(CO)c1)NC1CC1",
    "assay.readout": "melting point",
    "value.reported": 242.2
  },
  {
    "smiles.entry": "Cc1cc(-c2nc(Nc3ccc4c(c3)OC(F)(F)O4)nn2CCC(=O)N(C)C)cc(C)n1",
    "assay.readout": "melting point",
    "value.reported": 182.2
  },
  {
    "smiles.entry": "Cc1cc(-c2nc(Nc3ccc4c(c3)OC(F)(F)O4)nn2CCC(=O)N(C)C)ccn1",
    "assay.readout": "melting point",
    "value.reported": 219.3
  },
  {
    "smiles.entry": "CN(C)C(=O)CCn1nc(Nc2ccc(F)c(C(F)(F)F)c2)nc1-c1cccnc1",
    "assay.readout": "melting point",
    "value.reported": 190
  },
  {
    "smiles.entry": "Cc1cc(Nc2nc(-c3ccnc(Cl)c3)n(CCC(=O)N(C)C)n2)ccc1F",
    "assay.readout": "melting point",
    "value.reported": 149
  },
  {
    "smiles.entry": "C[C@H](O)Cn1nc(Nc2ccc(F)c(C(F)(F)F)c2)nc1-c1cnc2c(c1)OCC2",
    "assay.readout": "melting point",
    "value.reported": 174.4
  },
  {
    "smiles.entry": "Cc1ccncc1-c1nc(Nc2ccc(F)c(C(F)(F)F)c2)nn1CC(=O)NC1CC1",
    "assay.readout": "melting point",
    "value.reported": 251
  },
  {
    "smiles.entry": "Cc1cc(-c2nc(Nc3cccc(OC(F)(F)F)c3)nn2CC(=O)NC2CC2)ccn1",
    "assay.readout": "melting point",
    "value.reported": 190.7
  },
  {
    "smiles.entry": "CCNc1ccc(-c2nc(Nc3cc(F)c(F)cc3F)nn2CCC(=O)N(C)C)cn1",
    "assay.readout": "melting point",
    "value.reported": 134.2
  },
  {
    "smiles.entry": "CN(C)C(=O)CCCn1nc(Nc2ccc(F)c(C(F)(F)F)c2)nc1-c1ccnc(Cl)c1",
    "assay.readout": "melting point",
    "value.reported": 168.8
  },
  {
    "smiles.entry": "CNC(=O)Cn1nc(Nc2cccc(OC(F)(F)F)c2)nc1-c1ccncc1F",
    "assay.readout": "melting point",
    "value.reported": 192.2
  },
  {
    "smiles.entry": "COc1ccc(Nc2nc(-c3ccncc3)n(CCO)n2)cc1C(F)(F)F",
    "assay.readout": "melting point",
    "value.reported": 240.4
  },
  {
    "smiles.entry": "CCOC(=O)NCCn1nc(Nc2ccc(F)c(C(F)(F)F)c2)nc1-c1ccnc(C)c1",
    "assay.readout": "melting point",
    "value.reported": 160.5
  },
  {
    "smiles.entry": "CN(C)C(=O)CCn1nc(Nc2ccc(F)c(F)c2)nc1-c1ccc(C(F)(F)F)nc1",
    "assay.readout": "melting point",
    "value.reported": 194.4
  },
  {
    "smiles.entry": "CNc1cc(-c2nc(Nc3ccc(F)c(C(F)(F)F)c3)nn2CCc2noc(C)n2)ccn1",
    "assay.readout": "melting point",
    "value.reported": 188.7
  },
  {
    "smiles.entry": "COc1cc(-c2nc(Nc3cccc(C(F)(F)F)c3)nn2CCO)ccn1",
    "assay.readout": "melting point",
    "value.reported": 165.4
  },
  {
    "smiles.entry": "Cc1cc(-c2nc(Nc3ccc(F)c(C(F)(F)F)c3)nn2CC(=O)N2CCCC2)ccn1",
    "assay.readout": "melting point",
    "value.reported": 172.3
  },
  {
    "smiles.entry": "CNC(=O)Cn1nc(Nc2ccc(F)c(C(F)(F)F)c2)nc1-c1ccncc1OC",
    "assay.readout": "melting point",
    "value.reported": 234.8
  },
  {
    "smiles.entry": "COc1ccc(Nc2nc(-c3ccnc(C)c3)n(CCC(=O)N(C)C)n2)cc1C(F)(F)F",
    "assay.readout": "melting point",
    "value.reported": 177.2
  },
  {
    "smiles.entry": "CNC(=O)Cn1nc(Nc2cccc(OC(F)(F)F)c2)nc1-c1ccc(C2CC2)nc1",
    "assay.readout": "melting point",
    "value.reported": 217
  },
  {
    "smiles.entry": "CC(=O)CCn1nc(Nc2cccc(C(F)(F)F)c2)nc1-c1ccnc(C)c1",
    "assay.readout": "melting point",
    "value.reported": 138.1
  },
  {
    "smiles.entry": "CCc1ccc(-c2nc(Nc3ccc(F)c(C(F)(F)F)c3)nn2CCC(=O)N(C)C)cn1",
    "assay.readout": "melting point",
    "value.reported": 177.2
  }
]

----------
Target: hα7-wt nAChR (Homo sapiens, UniProt P36544)
Construct: expressed in transfected cells
Sequence (P36544 23-502): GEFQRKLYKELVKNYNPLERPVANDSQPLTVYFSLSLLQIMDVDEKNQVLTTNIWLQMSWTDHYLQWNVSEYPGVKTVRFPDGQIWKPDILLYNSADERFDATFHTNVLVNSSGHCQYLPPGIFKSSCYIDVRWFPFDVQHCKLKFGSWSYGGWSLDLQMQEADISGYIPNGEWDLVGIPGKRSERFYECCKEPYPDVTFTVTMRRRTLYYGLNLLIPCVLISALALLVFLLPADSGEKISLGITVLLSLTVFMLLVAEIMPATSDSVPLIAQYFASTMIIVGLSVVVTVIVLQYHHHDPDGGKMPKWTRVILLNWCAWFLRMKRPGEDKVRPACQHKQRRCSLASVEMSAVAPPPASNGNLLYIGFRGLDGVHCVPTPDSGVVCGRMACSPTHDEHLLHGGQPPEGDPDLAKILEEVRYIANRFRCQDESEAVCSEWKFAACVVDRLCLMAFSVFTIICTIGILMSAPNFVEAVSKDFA
Assay: Ca2+ flux imaging (FDSS) (Protocol B), PAM activity with choline as agonist
Format: cell-based
Settings: "<5" = no top plateau at maximal concentration
pEC50: −log10 of the molar value.
assay.readout: pEC50

P: COc1cccc(-c2nc(Nc3cccc(OC(F)(F)F)c3)nn2CC(=O)NC2CC2)c1
Q: CCOc1ccc(-c2nc(Nc3ccc(F)c(C(F)(F)F)c3)nn2CC(=O)NC)cn1
R: Cc1cc(-c2nc(Nc3ccc4c(c3)OC(F)(F)O4)nn2CC(=O)NC2CCOC2)ccn1 (stereo not drawn)
S: COc1cc(-c2nc(Nc3ccc(F)c(C(F)(F)F)c3)nn2CCO)ccn1
query: Would you mind ranking these compounds by ascending pEC50? Please list the labels in the order you were asked to rank them.
result: R, S, Q, P
(R: 5.30, S: 5.70, Q: 6.60, P: 7.10)

----------
Target: hα7-wt nAChR (Homo sapiens)
Construct: expressed in transfected cells
Assay: Ca2+ flux imaging (FDSS) (Protocol B), PAM activity with choline as agonist
Type: cell-based
Conditions: read-out: % efficacy
assay.readout: Emax (%)

[
  {
    "molecule": "Cc1nc(CCn2nc(Nc3ccc(F)c(C(F)(F)F)c3)nc2-c2ccnc(Cl)c2)no1 [Compound 56]",
    "value.reported": 717
  },
  {
    "molecule": "Cc1cc(-c2nc(Nc3cc(F)c(F)c(F)c3)nn2C[C@H](C)O)cc(Cl)n1 [Compound 172]",
    "value.reported": 812
  },
  {
    "molecule": "COc1ccc(-c2nc(Nc3ccc(F)c(C(F)(F)F)c3)nn2CC(=O)NC(C)C)c(OC)c1 [Compound 119]",
    "value.reported": 974
  },
  {
    "molecule": "COc1cc(Nc2nc(-c3ccnc(NCCO)c3)n(CC(=O)NCCO)n2)cc(C(F)(F)F)c1 [Compound 147]",
    "value.reported": 864
  },
  {
    "molecule": "COCCNc1ccc(-c2nc(Nc3ccc(F)c(C(F)(F)F)c3)nn2CCO)cn1 [Compound 93]",
    "value.reported": 764
  },
  {
    "molecule": "COc1ccc(Nc2nc(-c3ccnc(C4CC4)c3)n(CCF)n2)cc1C(F)(F)F [Compound 44]",
    "value.reported": 818
  },
  {
    "molecule": "CC(C)c1ccc(-c2nc(Nc3ccc(F)cc3)nn2CCO)cn1 [Compound 169]",
    "value.reported": 762
  }
]
